Test: Pharmacokinetics in Sprague Dawley rats
Format: in vivo, Sprague Dawley (SD) rats
Settings: plasma, rat, IV, 10 mg/kg
METRIC: clearance (mL/min/kg)
Give just the number in mL/min/kg; leave the unit off.

For reference, reported clearance for `COc1ccc2c(c1)C(c1ccc(Cl)cc1)=N[C@@H](COS(C)(=O)=O)c1nnc(C)n1-2` stands at 24.9

* * *

Test: Animal pharmacokinetics in ICR mice
Format: in vivo
Details: ICR, in vivo; mouse, IV, 10 mg/kg
METRIC: clearance (mL/min/kg)
Give just the number in mL/min/kg; leave the unit off.

Previously resolved entries follow.
{"COMPOUND": "COc1ccc2c(c1)C(c1ccc(Cl)cc1)=N[C@@H](COS(N)(=O)=O)c1nnc(C)n1-2 [Compound 8]", "clearance [mL/min/kg]": 9}
{"COMPOUND": "COc1ccc2c(c1)C(c1ccc(C#N)cc1)=N[C@@H](COS(C)(=O)=O)c1nnc(C)n1-2 [Compound 7]", "clearance [mL/min/kg]": 22.5}
{"COMPOUND": "CCS(=O)(=O)OC[C@@H]1N=C(c2ccc(Cl)cc2)c2cc(OC)ccc2-n2c(C)nnc21 [Compound 2]", "clearance [mL/min/kg]": 4.9}
{"COMPOUND": "Cc1nnc2n1-c1ccc(-c3cnn(C)c3)cc1C(c1ccc(Cl)cc1)=N[C@H]2COS(C)(=O)=O [Compound 11]", "clearance [mL/min/kg]": 16.8}

Let's switch to this compound now.
For reference, reported clearance for COc1ccc2c(c1)C(c1ccc(Cl)cc1)=N[C@@H](COS(C)(=O)=O)c1nnc(C)n1-2 [Compound 1] stands at 5.1

* * *

Assay: Pharmacokinetics in Sprague Dawley rats
Format: in vivo, Sprague Dawley (SD) rats
Conditions: plasma, rat, IV, 10 mg/kg
METRIC: MRT (h)
Give just the number in h; leave the unit off.

For reference, reported MRT for COc1ccc2c(c1)C(c1ccc(Cl)cc1)=N[C@@H](COS(C)(=O)=O)c1nnc(C)n1-2 [Compound 1] stands at 1.86

* * *

System: LnCAP (human prostatic adenocarcinoma cell line)
Test: Anti-proliferative activity test (CellTiter-Glo), LnCAP
Type: cell-based
Conditions: first value of LnCAP/MV4-11 cell, read-out: Cell proliferation IC50 (LnCAP)
Reported IC50 is given for each of the following molecules.
Give just the number in nM; leave the unit off.

{"CHEM_SMILES": "COc1ccc2c(c1)C(c1ccc(Cl)cc1)=N[C@@H](COS(N)(=O)=O)c1nnc(C)n1-2", "TESTED_SYSTEM": "LnCAP (human prostatic adenocarcinoma cell line)", "IC50 (nM)": 960}
{"CHEM_SMILES": "COc1ccc2c(c1)C(c1ccc(Cl)cc1)=N[C@@H](COS(C)(=O)=O)c1nnc(C)n1-2", "TESTED_SYSTEM": "LnCAP (human prostatic adenocarcinoma cell line)", "IC50 (nM)": 470}
{"CHEM_SMILES": "CCS(=O)(=O)OC[C@@H]1N=C(c2ccc(Cl)cc2)c2cc(OC)ccc2-n2c(C)nnc21", "TESTED_SYSTEM": "LnCAP (human prostatic adenocarcinoma cell line)", "IC50 (nM)": 600}
{"CHEM_SMILES": "COc1ccc2c(c1)C(c1ccc(Cl)cc1)=N[C@@H](COS(=O)(=O)N(C)C)c1nnc(C)n1-2", "TESTED_SYSTEM": "LnCAP (human prostatic adenocarcinoma cell line)", "IC50 (nM)": 1900}
{"CHEM_SMILES": "COc1ccc2c(c1)C(c1ccc(C#N)cc1)=N[C@@H](COS(C)(=O)=O)c1nnc(C)n1-2", "TESTED_SYSTEM": "LnCAP (human prostatic adenocarcinoma cell line)", "IC50 (nM)": 830}

For reference, reported IC50 for `Cc1nnc2n1-c1ccc(-c3cnn(C)c3)cc1C(c1ccc(Cl)cc1)=N[C@H]2COS(C)(=O)=O` stands at 190

For reference, reported IC50 for `Cc1sc2c(c1C)C(c1ccc(Cl)cc1)=N[C@@H](COS(C)(=O)=O)c1nnc(C)n1-2` stands at 480

For reference, reported IC50 for `COc1ccc2c(c1)C(c1ccc(Cl)cc1)=N[C@@H](COS(=O)(=O)C1CC1)c1nnc(C)n1-2` stands at 130

For reference, reported IC50 for `Cc1nnc2n1-c1ccc(-c3cnn(CC(N)=O)c3)cc1C(c1ccc(Cl)cc1)=N[C@H]2COS(C)(=O)=O` stands at 44000

For reference, reported IC50 for `CNS(=O)(=O)OC[C@@H]1N=C(c2ccc(Cl)cc2)c2cc(OC)ccc2-n2c(C)nnc21` stands at 570

For reference, reported IC50 for `Cc1nnc2n1-c1ccc(-c3cnn(CC(=O)N(C)C)c3)cc1C(c1ccc(Cl)cc1)=N[C@H]2COS(C)(=O)=O` stands at 430

For reference, reported IC50 for `CCCS(=O)(=O)OC[C@@H]1N=C(c2ccc(Cl)cc2)c2cc(OC)ccc2-n2c(C)nnc21` stands at 830

The reported measurements were obtained from patent US9884874B2.
